Target: 11β-HSD2 Cys^248Ser (Homo sapiens, UniProt P80365, C248S)
Sequence (P80365 whole entry C248S): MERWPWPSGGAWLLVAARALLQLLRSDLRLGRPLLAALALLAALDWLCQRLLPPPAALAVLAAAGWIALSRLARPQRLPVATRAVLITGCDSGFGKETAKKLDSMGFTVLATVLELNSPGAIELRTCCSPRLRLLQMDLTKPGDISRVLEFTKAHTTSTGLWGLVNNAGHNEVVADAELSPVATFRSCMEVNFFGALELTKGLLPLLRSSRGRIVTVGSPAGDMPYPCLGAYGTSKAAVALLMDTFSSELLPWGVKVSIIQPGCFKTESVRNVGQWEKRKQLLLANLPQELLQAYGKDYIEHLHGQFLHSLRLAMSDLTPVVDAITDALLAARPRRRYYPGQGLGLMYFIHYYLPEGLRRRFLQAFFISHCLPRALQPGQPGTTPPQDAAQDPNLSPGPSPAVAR
Conditions: read-out: TBT IC50 ± SD, Cys^248Ser; mutant Cys^248Ser, lysate
pIC50: −log10 of the molar value.
reportedEndpoint: pIC50

[[record]]
substancesmiles = "CCC[CH2][Sn]([CH2]CCC)[CH2]CCC"
quantitativereadout = 5.68


* * *

Target: 11β-HSD2 Cys^127Ser (Homo sapiens, UniProt P80365, C127S)
Sequence (P80365 whole entry C127S): as the sequence (P80365 whole entry C248S) above, with C127S, S248C counted along it
Conditions: read-out: TBT IC50 ± SD, Cys^127Ser; mutant Cys^127Ser, lysate
reportedEndpoint: IC50 (nM)

[[record]]
substancesmiles = "CCC[CH2][Sn]([CH2]CCC)[CH2]CCC"
displayunit = "nM"
quantitativereadout = 2230


* * *

Target: 11β-HSD2 (Rattus norvegicus)
Sequence (P50233 whole entry): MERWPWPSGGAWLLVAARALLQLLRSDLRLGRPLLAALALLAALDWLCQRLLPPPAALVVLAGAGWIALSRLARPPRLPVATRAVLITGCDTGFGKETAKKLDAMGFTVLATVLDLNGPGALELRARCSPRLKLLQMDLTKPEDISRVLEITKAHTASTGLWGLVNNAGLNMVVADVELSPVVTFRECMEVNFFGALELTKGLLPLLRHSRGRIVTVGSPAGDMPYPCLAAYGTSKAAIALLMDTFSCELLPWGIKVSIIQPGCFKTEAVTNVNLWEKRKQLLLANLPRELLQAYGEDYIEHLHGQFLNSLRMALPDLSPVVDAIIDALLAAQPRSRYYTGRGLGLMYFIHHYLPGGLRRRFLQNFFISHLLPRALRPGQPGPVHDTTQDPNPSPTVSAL
Settings: read-out: IC50 11β-HSD2 in intact RCCD-2 cells; endogenous enzyme, rat renal cortical collecting duct cells
Method: SW-620 (human colorectal adenocarcinoma) cells and JEG-3 (human choriocarcinoma) cells were cultured according to the recommendations of the supplier (American Type Culture Collection, Manassas, VA, USA). HEK-293 cells stably transfected with 11β-HSD2 (25,000 cells per well) were seeded 24 hr prior to the assay in poly-D-lysine coated 96-well Biocoat plates (Becton Dickinson, Basel, Switzerland). […]
pIC50: −log10 of the molar value.
reportedEndpoint: pIC50

[[record]]
substancesmiles = "CCC[CH2][Sn]([CH2]CCC)[CH2]CCC"
studysystem = "11β-HSD2 (Rattus norvegicus)"
reportedendpoint = "pIC50"
quantitativereadout = 6.08


* * *

Target: 11β-HSD1 (Homo sapiens, UniProt P28845)
Sequence (P28845 whole entry): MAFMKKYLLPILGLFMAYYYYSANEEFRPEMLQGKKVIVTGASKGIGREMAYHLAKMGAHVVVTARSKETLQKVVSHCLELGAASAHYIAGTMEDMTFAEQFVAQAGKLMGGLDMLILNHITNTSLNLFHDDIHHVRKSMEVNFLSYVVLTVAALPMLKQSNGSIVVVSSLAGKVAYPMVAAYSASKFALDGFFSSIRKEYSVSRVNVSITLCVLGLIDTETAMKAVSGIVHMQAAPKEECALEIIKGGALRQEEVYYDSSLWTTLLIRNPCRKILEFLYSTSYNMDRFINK
Experiment: 11β-HSD1 oxoreductase activity in cell lysates (cortisone to cortisol)
Settings: lysates of transfected HEK-293 cells; cortisone as substrate; read-out: IC50 11β-HSD1, cell lysate
Description: For determination of 11β-HSD1, 17β-HSD1, and 17β-HSD2 activity, HEK-293 cells transfected by the calcium-phosphate precipitation method were harvested 48 hr later, washed with PBS, and centrifuged for 3 min at 150 × g. Supernatants were removed, cell pellets quick-frozen in a dry ice ethanol bath, and stored at −70°C. […] We measured 11β-HSD1 oxoreductase activity as described recently ([Atanasov et al. 2004]), using radiolabeled cortisone as substrate. […]
pIC50: −log10 of the molar value.
reportedEndpoint: pIC50

[[record]]
substancesmiles = "c1cc[c]([Sn]([c]2ccccc2)[c]2ccccc2)cc1"
result = "< 3.70"

[[record]]
substancesmiles = "CCC[CH2][Sn]([CH2]CCC)[CH2]CCC"
result = "< 3.70"


* * *

Molecular target: 11β-HSD2 Cys^264Ser (Homo sapiens, UniProt P80365, C264S)
Sequence (P80365 whole entry C264S): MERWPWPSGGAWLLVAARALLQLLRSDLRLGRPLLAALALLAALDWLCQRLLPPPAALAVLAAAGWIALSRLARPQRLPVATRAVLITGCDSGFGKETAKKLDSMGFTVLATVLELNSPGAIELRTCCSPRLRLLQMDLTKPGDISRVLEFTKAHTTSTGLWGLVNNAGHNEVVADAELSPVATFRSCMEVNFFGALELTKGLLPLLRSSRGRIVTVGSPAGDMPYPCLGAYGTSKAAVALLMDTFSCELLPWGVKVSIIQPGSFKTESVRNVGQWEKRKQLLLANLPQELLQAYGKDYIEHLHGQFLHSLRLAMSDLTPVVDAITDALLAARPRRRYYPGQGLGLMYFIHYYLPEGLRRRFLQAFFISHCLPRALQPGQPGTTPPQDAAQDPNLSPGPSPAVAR
Settings: read-out: TBT IC50 ± SD, Cys^264Ser; mutant Cys^264Ser, lysate
reportedEndpoint: IC50 (µM)

[[record]]
compound = "CCC[CH2][Sn]([CH2]CCC)[CH2]CCC [TBT, tributyltin]"
studysystem = "11β-HSD2 Cys^264Ser (Homo sapiens, UniProt P80365, C264S)"
reportedendpoint = "IC50"
displayunit = "µM"
quantitativereadout = 4.2


* * *

Biological target: 11β-HSD2 Cys^48Ser (Homo sapiens, UniProt P80365, C48S)
Sequence (P80365 whole entry C48S): as the sequence (P80365 whole entry C248S) above, with C48S, S248C counted along it
Conditions: read-out: TBT IC50 ± SD, Cys^48Ser; mutant Cys^48Ser, lysate
pIC50: −log10 of the molar value.
reportedEndpoint: pIC50

[[record]]
compound = "CCC[CH2][Sn]([CH2]CCC)[CH2]CCC [TBT, tributyltin]"
studysystem = "11β-HSD2 Cys^48Ser (Homo sapiens, UniProt P80365, C48S)"
reportedendpoint = "pIC50"
quantitativereadout = 5.68


* * *

Target: 11β-HSD2 (Homo sapiens)
Sequence (P80365 whole entry): as the sequence (P80365 whole entry C264S) above, with S264C counted along it
Assay: 11β-HSD2 activity in lysates of stably transfected HEK-293 cells (cortisol to cortisone)
Format: biochemical
Parameters: expressed in transfected cells; host or cells: HEK-293, stably transfected
Details: 40 nM cortisol, 400 μM NAD+, 10 min 37°C; read-out: IC50 11β-HSD2, cell lysate
pIC50: −log10 of the molar value.
# pIC50 per entry
reportedEndpoint: pIC50

[[record]]
substancesmiles = "CCC[CH2][Sn]([CH2]CCC)[CH2]CCC"
quantitativereadout = 5.72

[[record]]
substancesmiles = "c1cc[c]([Sn][c]2ccccc2)cc1"
quantitativereadout = 5.85

[[record]]
substancesmiles = "CCC[CH2][Sn][CH2]CCC"
quantitativereadout = 5.71

[[record]]
substancesmiles = "c1cc[c]([Sn]([c]2ccccc2)[c]2ccccc2)cc1"
quantitativereadout = 5.50


* * *

Target: 17β-HSD2 (Homo sapiens, UniProt P37059)
Sequence (P37059 whole entry): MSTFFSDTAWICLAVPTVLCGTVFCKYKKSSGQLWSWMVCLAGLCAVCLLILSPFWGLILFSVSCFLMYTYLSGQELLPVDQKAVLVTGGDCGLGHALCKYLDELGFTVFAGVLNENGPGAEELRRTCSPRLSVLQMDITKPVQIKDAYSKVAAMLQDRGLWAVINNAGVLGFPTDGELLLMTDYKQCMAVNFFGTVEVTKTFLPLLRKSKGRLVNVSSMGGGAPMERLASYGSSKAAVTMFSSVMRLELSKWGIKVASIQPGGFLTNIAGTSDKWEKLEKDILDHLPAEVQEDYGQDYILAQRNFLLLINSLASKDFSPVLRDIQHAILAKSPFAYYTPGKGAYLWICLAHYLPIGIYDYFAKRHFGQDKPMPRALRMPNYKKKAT
Experiment: 17β-HSD2 activity in cell lysates (estradiol to estrone)
Conditions: lysates of transfected HEK-293 cells; 200 nM estradiol, NAD+; read-out: IC50 17β-HSD2, cell lysate
Listing: IC50 of selected molecules
reportedEndpoint: IC50 (µM)

[[record]]
substancesmiles = "c1cc[c]([Sn]([c]2ccccc2)[c]2ccccc2)cc1"
studysystem = "17β-HSD2 (Homo sapiens, UniProt P37059)"
reportedendpoint = "IC50"
relationqualifier = "="
quantitativereadout = 19

[[record]]
substancesmiles = "CCC[CH2][Sn]([CH2]CCC)[CH2]CCC"
studysystem = "17β-HSD2 (Homo sapiens, UniProt P37059)"
reportedendpoint = "IC50"
relationqualifier = ">"
quantitativereadout = 200


* * *

Target: 11β-HSD2 Cys^371Ser (Homo sapiens, UniProt P80365, C371S)
Conditions: read-out: TBT IC50 ± SD, Cys^371Ser; mutant Cys^371Ser, lysate
pIC50: −log10 of the molar value.
reportedEndpoint: pIC50

[[record]]
compound = "CCC[CH2][Sn]([CH2]CCC)[CH2]CCC [TBT, tributyltin]"
reportedendpoint = "pIC50"
quantitativereadout = 5.66


* * *

Target: 11β-HSD2 Cys^188Ser (Homo sapiens, UniProt P80365, C188S)
Conditions: read-out: TBT IC50 ± SD, Cys^188Ser; mutant Cys^188Ser, lysate
reportedEndpoint: IC50 (µM)

[[record]]
substancesmiles = "CCC[CH2][Sn]([CH2]CCC)[CH2]CCC"
displayunit = "µM"
quantitativereadout = 1.95

